Origin of values: ChEMBL document CHEMBL2321699

Reported IC50 is given for each of the following molecules.
System: ASPC1
Assay: Cytotoxicity against human AsPC1 cells after 72 hrs by MTS assay
Type: functional, cell-based
Conditions: ASPC1, 72 h
Write the number in µM without appending the unit.

response.value for CN1CCC(Oc2ccc(Cl)cc2C(=O)Nc2ccc([N+](=O)[O-])cc2Cl)CC1 (field: IC50) = 3.51

Notebook: NCCCCOc1ccc(Cl)cc1C(=O)Nc1ccc([N+](=O)[O-])cc1Cl , IC50 read as 7.4

// IC50 lookup, molecule = NCCCCCOc1ccc(Cl)cc1C(=O)Nc1ccc([N+](=O)[O-])cc1Cl , result: 2.08

// field: IC50; key: O=C(Nc1ccc([N+](=O)[O-])cc1Cl)c1cc(Cl)ccc1OC1CCNCC1 ; value = 2.76

Noted for O=C(Nc1ccc([N+](=O)[O-])cc1Cl)c1cc(Cl)ccc1OCCN1CCOCC1 : its IC50 reads 72.2

New cases:
Per the records, this molecule ( NCCOc1ccc(Cl)cc1C(=O)Nc1ccc([N+](=O)[O-])cc1Cl ) has IC50 equal to 1.9

Measured IC50, NCCCOc1ccc(Cl)cc1C(=O)Nc1ccc([N+](=O)[O-])cc1Cl : 4.2

The measured IC50 associated with O=C(Nc1ccc([N+](=O)[O-])cc1Cl)c1cc(Cl)ccc1O [NICLOSAMIDE] reads 1.47

----------
Tested on: PANC-1
Assay: Cytotoxicity against human PANC1 cells after 72 hrs by MTS assay
Assay type: functional, cell-based
Conditions: PANC-1, 72 h
Readout label: IC50 (nM)
Your answer should be a plain number; it is taken to be in nM.

Sample NCCOc1ccc(Cl)cc1C(=O)Nc1ccc([N+](=O)[O-])cc1Cl , system: PANC-1. Its IC50 is 1080

Others:
Value sought: IC50, system PANC-1, item O=C(Nc1ccc([N+](=O)[O-])cc1Cl)c1cc(Cl)ccc1OC1CCNCC1 . Result: 540

----------
Tested on: PANC-1
Assay: Cytotoxicity against human PANC1 cells after 72 hrs by MTS assay
Assay type: functional, cell-based
Conditions: PANC-1, 72 h
Readout label: IC50 (µM)
The response must be a number in µM with no trailing unit.

The measured IC50 associated with NCCCOc1ccc(Cl)cc1C(=O)Nc1ccc([N+](=O)[O-])cc1Cl reads 3.11

Others:
The recorded IC50 for entry NCCCCCOc1ccc(Cl)cc1C(=O)Nc1ccc([N+](=O)[O-])cc1Cl equals 4.67

For this compound ( O=C(Nc1ccc([N+](=O)[O-])cc1Cl)c1cc(Cl)ccc1O [NICLOSAMIDE] ), measured IC50 is 1.73
